Just for reference, patent US20100168102A9 is where these values come from.

# target-of-assay: PKC epsilon (Homo sapiens)
# Construct: purchased Invitrogen P2282
# Sequence (Q02156 1-737): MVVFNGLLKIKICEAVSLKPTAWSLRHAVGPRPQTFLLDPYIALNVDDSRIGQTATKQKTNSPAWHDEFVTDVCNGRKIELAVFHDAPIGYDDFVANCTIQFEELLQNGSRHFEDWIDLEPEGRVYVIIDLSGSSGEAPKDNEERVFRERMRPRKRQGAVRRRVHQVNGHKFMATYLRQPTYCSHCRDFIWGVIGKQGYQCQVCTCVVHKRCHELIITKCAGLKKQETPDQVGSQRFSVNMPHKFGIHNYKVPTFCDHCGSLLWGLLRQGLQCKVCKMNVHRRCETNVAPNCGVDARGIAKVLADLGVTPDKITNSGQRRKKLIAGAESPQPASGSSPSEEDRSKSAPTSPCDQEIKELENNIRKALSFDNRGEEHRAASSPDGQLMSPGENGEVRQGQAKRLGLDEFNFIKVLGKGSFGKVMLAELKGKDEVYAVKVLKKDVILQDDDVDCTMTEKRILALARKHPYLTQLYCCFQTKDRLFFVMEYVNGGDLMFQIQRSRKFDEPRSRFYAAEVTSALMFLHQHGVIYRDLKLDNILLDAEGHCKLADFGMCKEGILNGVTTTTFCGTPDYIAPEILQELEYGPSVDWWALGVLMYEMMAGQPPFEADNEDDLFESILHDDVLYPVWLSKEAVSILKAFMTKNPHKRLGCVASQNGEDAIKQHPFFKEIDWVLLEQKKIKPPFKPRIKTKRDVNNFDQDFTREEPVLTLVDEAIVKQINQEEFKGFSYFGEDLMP
# method-description: Biochemical assay for PKC epsilon (fluorescence polarization, Protein Kinase C Assay Kit, Red)
# assay-setup: read-out: IC50 μM PKCε
quantity-name: IC50

- molecule: "CN(CC(N)c1ccc(C(=O)Nc2ccncc2)cc1)C(=O)C1(c2ccc(F)c(F)c2)CCCC1 (centres unmarked)"
  target-of-assay: "PKC epsilon (Homo sapiens)"
  quantity-name: "IC50"
  result: "0.5 to 5 µM"
- molecule: "NC(c1ccc(C(=O)Nc2ccncc2)cc1)C1CCCN1C(=O)Cc1cccc(Cl)c1 (centres unmarked)"
  target-of-assay: "PKC epsilon (Homo sapiens)"
  quantity-name: "IC50"
  result: "5 to 50 µM"
- molecule: "CC(C)(C(=O)NC[C@H](N)c1ccc(C(=O)Nc2ccncc2)cc1)c1ccc(Cl)cc1"
  target-of-assay: "PKC epsilon (Homo sapiens)"
  quantity-name: "IC50"
  result: "0.5 to 5 µM"
- molecule: "NC(c1ccc(C(=O)Nc2ccncc2)cc1)C1CCCN1C(=O)C1(c2ccc(F)cc2Cl)CC1 (centres unmarked)"
  target-of-assay: "PKC epsilon (Homo sapiens)"
  quantity-name: "IC50"
  result: "0.5 to 5 µM"
- molecule: "CCNC(=S)NCC(N)c1ccc(C(=O)Nc2ccncc2)cc1 (centres unmarked)"
  target-of-assay: "PKC epsilon (Homo sapiens)"
  quantity-name: "IC50"
  result: "0.5 to 5 µM"
- molecule: "CN(CC(N)c1ccc(C(=O)Nc2ccncc2)cc1)C(=O)C1CCCc2sccc21 (centres unmarked)"
  target-of-assay: "PKC epsilon (Homo sapiens)"
  quantity-name: "IC50"
  result: "5 to 50 µM"
- molecule: "NC(c1ccc(C(=O)Nc2ccncc2)cc1)C1CCCN1C(=O)Cc1cccc(Cl)c1F (centres unmarked)"
  target-of-assay: "PKC epsilon (Homo sapiens)"
  quantity-name: "IC50"
  result: "5 to 50 µM"
- molecule: "N[C@@H](CC(=O)NC1COc2ccccc21)c1ccc(C(=O)Nc2ccncc2)cc1 (mixture of isomers)"
  target-of-assay: "PKC epsilon (Homo sapiens)"
  quantity-name: "IC50"
  result: "0.5 to 5 µM"
